Tested on: Dengue virus
Assay: Inhibition of Dengue virus NS2B-NS3 protease using Abz-NleKRRS-3-(NO2)Y as substrate at 50 uM preincubated for 15 mins measured every sec for 15 mins by fluorimetric analysis
Calls of active or inactive are those of the source. The rule behind the calls is not given here.
endpoint.name: inhibition

smiles.record: O=C1NC(=S)S/C1=C1/CCOc2ccccc21
assay.system: Dengue virus
inhibition: 44%

smiles.record: O=C1NC(=O)/C(=C/c2ccc(Cl)cc2Cl)N1
assay.system: Dengue virus
inhibition: 15%

smiles.record: O=C1NC(=S)S/C1=C\c1c(F)c(F)c(F)c(F)c1F
assay.system: Dengue virus
inhibition: 27%

smiles.record: O=C1NC(=S)N/C1=C\c1sccc1Br
assay.system: Dengue virus
inhibition: 44%

smiles.record: COc1cccc(/C=C2\NC(=S)NC2=O)c1
assay.system: Dengue virus
inhibition: 28%

inhibition recorded for this compound, O=C1NC(=O)/C(=C/c2c[nH]c3ccccc23)S1 , is 26%

Entry Cn1cc(/C=C2\NC(=O)NC2=O)c2ccccc21 , inhibition reported as 34%

The value of inhibition measured for the compound C/C(=C1/NC(=S)NC1=O)c1ccccc1 turned out to be inactive

Recorded result, O=C1NC(=S)S/C1=C\c1cnc[nH]1 , inhibition: 53%

Record O=C1NC(=S)S/C1=C\c1cccs1 , field inhibition: 44%

# inhibition of COc1cccc(/C=C2\SC(=S)NC2=O)c1 = 33%

// field: inhibition; key: O=C1NC(=O)/C(=C/c2ccc3ccccc3c2)N1 ; value = 36%

The recorded inhibition for O=C1NC(=S)NC1=C(c1ccccc1)c1ccccc1 is inactive
